Values compiled from paper doi:10.1101/2022.07.22.501140.

- TESTED ON: XlKH1-DmBicc1KH2-KH3 (Xenopus laevis / Drosophila …, UniProt A0A1L8FE49 1-134+Q24009:179-506, internal_change)
- PROCEDURE TEXT: fluorescence polarization

# BINDER, Kd (µM)
records = [
    ("CUUAUUAGACACGUUGUACAUUAACAGCUCC (structured_RNA) [XlCripto-1 wild-type RNA site]", 0.089),
]
